# assay target: T1, CD81 (UniProt P60033 1-236, limits assumed)
# T1 construct: whole, on cells; also called CD81 receptor
# T1 sequence (looked up): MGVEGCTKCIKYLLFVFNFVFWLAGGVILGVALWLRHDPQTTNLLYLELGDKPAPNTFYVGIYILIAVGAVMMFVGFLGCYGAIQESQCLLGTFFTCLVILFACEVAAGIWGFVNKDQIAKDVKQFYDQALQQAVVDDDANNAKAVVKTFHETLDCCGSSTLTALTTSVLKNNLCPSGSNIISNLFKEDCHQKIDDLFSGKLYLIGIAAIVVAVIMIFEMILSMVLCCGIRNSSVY
# protocol text: cell ELISA;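 also: antibody binding to HuH7 cells expressing CD81 versus a CD81-negative HuH7 control line, bound antibody detected by secondary reagent, absorbance at 450 nm with 620 nm reference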
measured property: ELISA data

# binder, observed measurement
records = [
    ("CD81K04 HC GG-02-hVH_1_69 / LC GG-05-hVK_3_11 (antibody, V domains shown, human constant region) VH: QVQLVQSGAEVKKPGSSVKVSCKASGYTFSSSWMNWVRQAPGQGLEWMGRIYSGDGDAIYNQKFQGRVTITADESTSTAYMELSSLRSEDTAVYYCAREGKTGDLLLRSWGQGTLVTVSS VL: EIVLTQSPATLSLSPGERATLSCRASKSVSTSIYSYLHWYQQKPGQAPRLLIYYASNRETGIPARFSGSGSGTDFTLTISSLEPEDFAVYYCQHSREFPFTFGQGTKLEIK", 0.229),
    ("CD81K04 HC JA_GG-14-hVH_1_69-GA / LC GG-03-hVK_4_1 (antibody, V domains shown, human constant region) VH: QVQLVQSGAEVKKPGSSVKVSCKASGYTFSSSWMNWVRQAPGQGLEWMGRIYSGDGDAIYNGKFKGKATITADESTSTAYMELSSLRSEDTAVYYCAREGKTGDLLLRSWGQGTLVTVSS VL: DIVMTQSPDSLAVSLGERATINCKSSKSVSTSIYSYLAWYQQKPGQPPKLLIYYASYRESGVPDRFSGSGSGTDFTLTISSLQAEDVAVYYCQHSREFPFTFGQGTKLEIK", 0.243),
]

Now for a further binder.
Q. For CD81K04 HC GG-03-hVH_1_69 / LC JA_GG-09-hVK_4_1 (antibody, V domains shown, human constant region) VH: QVQLVQSGAEVKKPGSSVKVSCKASGYTFSSSWMNWVRQAPGQGLEWMGRIYSGDGDAIYAQKFQGRVTITADESTSTAYMELSSLRSEDTAVYYCAREGKTGDLLLRSWGQGTLVTVSS VL: DIVMTQSPDSLAVSLGERATINCKSSKSVSTSIYSYMHWYQQKPGQPPKLLIKYASTRESGVPDRFSGSGSGTDFTLTISSLQAEDVAVYYCEHSREFPFTFGQGTKLEIK , what is its reported ELISA data?
A. 0.832

Recorded values, source patent US20200377590A1.
